Listed here: items and their measured total protein half-life in vivo.
methodDescription: total protein half-life in vivo (active degradation + dilution); higher = more stable protein
cond: E. coli NCM3722 delta-lon; growth: N-lim chemostat; doubling time 6 h
Hi! Could you send only the number? It should be in h, unit omitted.

QUERY: Fill blank: measured total protein half-life in vivo of the sequence MVDKSQETTHFGFQTVAKEQKADMVAHVFHSVASKYDVMNDLMSFGIHRLWKRFTIDCSGVRRGQTVLDLAGGTGDLTAKFSRLVGETGKVVLADINESMLKMGREKLRNIGVIGNVEYVQANAEALPFPDNTFDCITISFGLRNVTDKDKALRSMYRVLKPGGRLLVLEFSKPIIEPLSKAYDAYSFHVLPRIGSLVANDADSYRYLAESIRMHPDQDTLKAMMQDAGFESVDYYNLTAGVVALHRGYKF [P0A887] is ____.
RESULT: 4.9

QUERY: Note, next up: MELIFLGTSAGVPTRTRNVTAILLNLQHPTQSGLWLFDCGEGTQHQLLHTAFNPGKLDKIFISHLHGDHLFGLPGLLCSRSMSGIIQPLTIYGPQGIREFVETALRISGSWTDYPLEIVEIGAGEILDDGLRKVTAYPLEHPLECYGYRIEEHDKPGALNAQALKAAGVPPGPLFQELKAGKTITLEDGRQINGADYLAAPVPGKALAIFGDTGPCDAALDLAKGVDVMVHEATLDITMEAKANSRGHSSTRQAATLAREAGVGKLIITHVSSRYDDKGCQHLLRECRSIFPATELANDFTVFNV [P0A8V0]
RESULT: 5.43

* * *

methodDescription: total protein half-life in vivo (active degradation + dilution); higher = more stable protein
cond: E. coli NCM3722 delta-hslV; growth: N-lim chemostat; doubling time 6 h
testReadout: total protein half-life in vivo (h)
Hi! Could you send only the number? It should be in h, unit omitted.

QUERY: Fill blank: measured total protein half-life in vivo of the sequence MNSFNEGVVSPLLSFWRRSLMLAGALLLTACSHNSSLPPFTASGFAEDQGAVRIWRKDSGDNVHLLAVFSPWRSGDTTTREYRWQGDNLTLININVYSKPPVNIRARFDDRGDLSFMQRESDGEKQQLSNDQIDLYRYRADQIRQISDALRQGRVVLRQGRWHAMEQTVTTCEGQTIKPDLDSQAIAHIERRQSRSSVDVSVAWLEAPEGSQLLLVANSDFCRWQPNEKTF is ____.
RESULT: 6.4

QUERY: Note, next up: MIDFGNFYSLIAKNHLSHWLETLPAQIANWQREQQHGLFKQWSNAVEFLPEIKPYRLDLLHSVTAESEEPLSAGQIKRIETLMRNLMPWRKGPFSLYGVNIDTEWRSDWKWDRVLPHLSDLTGRTILDVGCGSGYHMWRMIGAGAHLAVGIDPTQLFLCQFEAVRKLLGNDQRAHLLPLGIEQLPALKAFDTVFSMGVLYHRRSPLEHLWQLKDQLVNEGELVLETLVIDGDENTVLVPGDRYAQMRNVYFIPSALALKNWLKKCGFVDIRIADVSVTTTEEQRRTEWMVTESLADFLDPHDPGKTVEGYPAPKRAVLIARKP
RESULT: 5.33

* * *

methodDescription: total protein half-life in vivo (active degradation + dilution); higher = more stable protein
cond: wild type E. coli NCM3722; growth: N-lim chemostat; doubling time 12 h
Given measured total protein half-life in vivo, output label 1 if it is greater than or equal to 8 h and label 0 if not.

As a guide, the following entries are already answered.
- querySequence: "MHVFDNNGIELKAECSIGEEDGVYGLILESWGPGDRNKDYNIALDYIIERLVDSGVSQVVVYLASSSVRKHMHSLDERKIHPGEYFTLIGNSPRDIRLKMCGYQAYFSRTGRKEIPSGNRTKRILINVPGIYSDSFWASIIRGELSELSQPTDDESLLNMRVSKLIKKTLSQPEGSRKPVEVERLQKVYVRDPMVKAWILQQSKGICENCGKNAPFYLNDGNPYLEVHHVIPLSSGGADTTDNCVALCPNCHRELHYSKNAKELIEMLYVNINRLQK"
  assignedClass: "label 1"
- querySequence: "MKRNTKIALVMMALSAMAMGSTSAFAHGGHGMWQQNAAPLTSEQQTAWQKIHNDFYAQSSALQQQLVTKRYEYNALLAANPPDSSKINAVAKEMENLRQSLDELRVKRDIAMAEAGIPRGAGMGMGYGGCGGGGHMGMGHW [P0AAA9]"
  assignedClass: "label 1"
- querySequence: "MDIIFYHPTFDTQWWIEALRKAIPQARVRAWKSGDNDSADYALVWHPPVEMLAGRDLKAVFALGAGVDSILSKLQAHPEMLNPSVPLFRLEDTGMGEQMQEYAVSQVLHWFRRFDDYRIQQNSSHWQPLPEYHREDFTIGILGAGVLGSKVAQSLQTWRFPLRCWSRTRKSWPGVQSFAGREELSAFLSQCRVLINLLPNTPETVGIINQQLLEKLPDGAYLLNLARGVHVVEDDLLAALDSGKVKGAMLDVFNREPLPPESPLWQHPRVTITPHVAAITRPAEAVEYISRTIAQLEKGERVCGQVDRARGY"
  assignedClass: "label 0"
- querySequence: "MRTQWPSPAKLNLFLYITGQRADGYHTLQTLFQFLDYGDTISIELRDDGDIRLLTPVEGVEHEDNLIVRAARLLMKTAADSGRLPTGSGANISIDKRLPMGGGLGGGSSNAATVLVALNHLWQCGLSMDELAEMGLTLGADVPVFVRGHAAFAEGVGEILTPVDPPEKWYLVAHPGVSIPTPVIFKDPELPRNTPKRSIETLLKCEFSNDCEVIARKRFREVDAVLSWLLEYAPSRLTGTGACVFAEFDTESEARQVLEQAPEWLNGFVAKGANLSPLHRAML"
  assignedClass: "label 0"

QUERY: Assess whether reported total protein half-life in vivo for MIREAQRSELPAILELWLESTTWGHPFIKANYWRDCIPLVRDAYLANAQNWVWEEDGKLLGFVSIMEGRFLAAMFVAPKAVRRGIGKALMQYVQQRHPHLMLEVYQKNQPAINFYQAQGFHIVDCAWQDETQLPTWIMSWPVVQTL sits at 8 h or higher.
RESULT: label 0

QUERY: Note, next up: MIGRLLRGGFMTAIYAYLYIPIIILIVNSFNSSRFGINWQGFTTKWYSLLMNNDSLLQAAQHSLTMAVFSATFATLIGSLTAVALYRYRFRGKPFVSGMLFVVMMSPDIVMAISLLVLFMLLGIQLGFWSLLFSHITFCLPFVVVTVYSRLKGFDVRMLEAAKDLGASEFTILRKIILPLAMPAVAAGWVLSFTLSMDDVVVSSFVTGPSYEILPLKIYSMVKVGVSPEVNALATILLVLSLVMVIASQLIARDKTKGNTGDVK [P0AFK6]
RESULT: label 1

QUERY: Note, next up: MSQTVHFQGNPVTVANSIPQAGSKAQTFTLVAKDLSDVTLGQFAGKRKVLNIFPSIDTGVCAASVRKFNQLATEIDNTVVLCISADLPFAQSRFCGAEGLNNVITLSTFRNAEFLQAYGVAIADGPLKGLAARAVVVIDENDNVIFSQLVDEITTEPDYEAALAVLKA [P0A862]
RESULT: label 1

The reported measurements were obtained from the supplement of paper PMC11246515.
